# IC50 listing for each entry below
- assay_target: Phosphodiesterase 4 (Homo sapiens, UniProt P27815+Q08499+Q07343+Q08493)
- experimental_details: Inhibition of PDE4 activity in human PBMC assessed as inhibition of LPS-induced TNFalpha release after 18 hrs by ELISA
Unit nM implied. Number only.

Write down the reported IC50 of CS(=O)(=O)Nc1ccc(C(=O)O[C@@H](Cc2c(Cl)c[n+]([O-])cc2Cl)c2ccc(OC(F)F)c(OCC3CC3)c2)c(OCC2CC2)c1 , test system: Phosphodiesterase 4 (Homo sapiens, UniProt P27815+Q08499+Q07343+Q08493). 1.96

Write down the reported IC50 of COc1ccc(C(=O)O[C@@H](Cc2c(Cl)c[n+]([O-])cc2Cl)c2ccc(OC(F)F)c(OCC3CC3)c2)cc1OCC1CC1 , test system: Phosphodiesterase 4 (Homo sapiens, UniProt P27815+Q08499+Q07343+Q08493). 0.04

Write down the reported IC50 of O=C(O[C@@H](Cc1c(Cl)c[n+]([O-])cc1Cl)c1ccc(OC(F)F)c(OCC2CC2)c1)c1ccc(OC(F)F)c(OCC2CC2)c1 , test system: Phosphodiesterase 4 (Homo sapiens, UniProt P27815+Q08499+Q07343+Q08493). 1.1

---

- assay_target: Phosphodiesterase 4 (Homo sapiens, UniProt P27815+Q08499+Q07343+Q08493)
- experimental_details: Inhibition of PDE4 isolated from human U937 cells assessed as […] by LANCE assay
- Type: cell-free
- experimental_conditions: u-937
quantity_name: IC50 (nM)
Unit nM implied. Number only.

Check out these entries, answers already filled in.
{"molecule": "O=C(Cc1ccccc1)OC(Cc1c(Cl)cncc1Cl)c1ccc(OC(F)F)c(OCC2CC2)c1 (racemic)", "IC50 (nM)": 1.06}
{"molecule": "COc1ccc(C(=O)O[C@@H](Cc2c(Cl)c[n+]([O-])cc2Cl)c2ccc(OC(F)F)c(OCC3CC3)c2)cc1Oc1ccccc1", "IC50 (nM)": 0.21}
{"molecule": "CC(=O)OC(Cc1c(Cl)cncc1Cl)c1ccc(OC(F)F)c(OCC2CC2)c1 (racemic)", "IC50 (nM)": 4.09}
{"molecule": "COc1cc(NS(C)(=O)=O)ccc1C(=O)O[C@@H](Cc1c(Cl)c[n+]([O-])cc1Cl)c1ccc(OC(F)F)c(OCC2CC2)c1", "IC50 (nM)": 0.06}
{"molecule": "COc1ccc(C(=O)O[C@@H](Cc2c(Cl)c[n+]([O-])cc2Cl)c2ccc(OC(F)F)c(OCC3CC3)c2)cc1OC(C)=O", "IC50 (nM)": 0.05}

Entry under review: CC(=O)Nc1ccc(C(=O)O[C@@H](Cc2c(Cl)c[n+]([O-])cc2Cl)c2ccc(OC(F)F)c(OCC3CC3)c2)cc1OCC1CC1 . Reported IC50? 0.24

Entry under review: Cc1cc(C(=O)O[C@@H](Cc2c(Cl)c[n+]([O-])cc2Cl)c2ccc(OC(F)F)c(OCC3CC3)c2)ccc1NS(C)(=O)=O . Reported IC50? 0.05

Entry under review: COc1ccc(NS(C)(=O)=O)cc1C(=O)O[C@@H](Cc1c(Cl)c[n+]([O-])cc1Cl)c1ccc(OC(F)F)c(OCC2CC2)c1 . Reported IC50? 0.04

Entry under review: CS(=O)(=O)Nc1ccc(C(=O)O[C@@H](Cc2c(Cl)c[n+]([O-])cc2Cl)c2ccc(OC(F)F)c(OCC3CC3)c2)cc1 . Reported IC50? 0.05

Entry under review: COc1ccc(C(=O)O[C@@H](Cc2c(Cl)c[n+]([O-])cc2Cl)c2ccc(OC(F)F)c(OCC3CC3)c2)cc1NC(C)=O . Reported IC50? 0.08

---

- assay_target: Phosphodiesterase 4 (Homo sapiens, UniProt P27815+Q08499+Q07343+Q08493)
- experimental_details: Inhibition of PDE4 isolated from human U937 cells assessed as […] by LANCE assay
- Type: cell-free
- experimental_conditions: u-937
// boundary case: IC50 equal to 0.06 nM maps to no; strictly smaller maps to yes

{"cpd_smiles": "O=C(O[C@@H](Cc1c(Cl)c[n+]([O-])cc1Cl)c1ccc(OC(F)F)c(OCC2CC2)c1)c1ccc([N+](=O)[O-])c(OCC2CC2)c1", "label_value": "no"}

Hello, is IC50 of the following compound strictly smaller than 0.06 nM? COc1ccc(C(=O)O[C@@H](Cc2c(Cl)c[n+]([O-])cc2Cl)c2ccc(OC(F)F)c(OCC3CC3)c2)cc1NS(C)(=O)=O yes

Hello, is IC50 of the following compound strictly smaller than 0.06 nM? O=C(O[C@H](Cc1c(Cl)cncc1Cl)c1ccc(OC(F)F)c(OCC2CC2)c1)c1ccc(OC(F)F)c(OCC2CC2)c1 no

---

- assay_target: Phosphodiesterase 4 (Homo sapiens, UniProt P27815+Q08499+Q07343+Q08493)
- experimental_details: Inhibition of PDE4 activity in human PBMC assessed as inhibition of LPS-induced TNFalpha release after 18 hrs by ELISA
# IC50 listing for each entry below
Unit nM implied. Number only.

Check out these entries, answers already filled in.
{"cpd_smiles": "CS(=O)(=O)Nc1cc(OCC2CC2)cc(C(=O)O[C@@H](Cc2c(Cl)c[n+]([O-])cc2Cl)c2ccc(OC(F)F)c(OCC3CC3)c2)c1", "measurement_units": "nM", "experimental_value": 0.92}
{"cpd_smiles": "CS(=O)(=O)Nc1ccc(C(=O)O[C@@H](Cc2c(Cl)c[n+]([O-])cc2Cl)c2ccc(OC(F)F)c(OCC3CC3)c2)cc1OCC1CC1", "measurement_units": "nM", "experimental_value": 0.06}
{"cpd_smiles": "COc1cc(NS(C)(=O)=O)ccc1C(=O)O[C@@H](Cc1c(Cl)c[n+]([O-])cc1Cl)c1ccc(OC(F)F)c(OCC2CC2)c1", "measurement_units": "nM", "experimental_value": 0.43}
{"cpd_smiles": "CS(=O)(=O)Nc1ccc(OCC2CC2)c(C(=O)O[C@@H](Cc2c(Cl)c[n+]([O-])cc2Cl)c2ccc(OC(F)F)c(OCC3CC3)c2)c1", "measurement_units": "nM", "experimental_value": 4.9}

Shifting focus to the molecule that follows.
Entry under review: Cc1ccc(C(=O)O[C@@H](Cc2c(Cl)c[n+]([O-])cc2Cl)c2ccc(OC(F)F)c(OCC3CC3)c2)cc1NS(C)(=O)=O . Reported IC50? 0.96

---

- assay_target: Phosphodiesterase 4 (Homo sapiens, UniProt P27815+Q08499+Q07343+Q08493)
- experimental_details: Inhibition of PDE4 isolated from human U937 cells assessed as […] by LANCE assay
- Assay type: cell-free
- experimental_conditions: u-937
// boundary case: IC50 equal to 0.1 nM maps to Not satisfied; strictly smaller maps to Satisfied

Illustrative cases are given below, each with its answer.
{"cpd_smiles": "CS(=O)(=O)Nc1cc(C(=O)O[C@@H](Cc2c(Cl)c[n+]([O-])cc2Cl)c2ccc(OC(F)F)c(OCC3CC3)c2)ccc1OCc1ccccc1", "assay_target": "Phosphodiesterase 4 (Homo sapiens, UniProt P27815+Q08499+Q07343+Q08493)", "label_value": "Not satisfied"}
{"cpd_smiles": "CS(=O)(=O)Nc1cc(C(=O)O[C@@H](Cc2c(Cl)c[n+]([O-])cc2Cl)c2ccc(OC(F)F)c(OCC3CC3)c2)ccc1OCC1CC1", "assay_target": "Phosphodiesterase 4 (Homo sapiens, UniProt P27815+Q08499+Q07343+Q08493)", "label_value": "Not satisfied"}
{"cpd_smiles": "COc1cc(NS(C)(=O)=O)cc(C(=O)O[C@@H](Cc2c(Cl)c[n+]([O-])cc2Cl)c2ccc(OC(F)F)c(OCC3CC3)c2)c1", "assay_target": "Phosphodiesterase 4 (Homo sapiens, UniProt P27815+Q08499+Q07343+Q08493)", "label_value": "Not satisfied"}
{"cpd_smiles": "CS(=O)(=O)Nc1ccc(C(=O)O[C@@H](Cc2c(Cl)c[n+]([O-])cc2Cl)c2ccc(OC(F)F)c(OCC3CC3)c2)c(OCC2CC2)c1", "assay_target": "Phosphodiesterase 4 (Homo sapiens, UniProt P27815+Q08499+Q07343+Q08493)", "label_value": "Not satisfied"}
{"cpd_smiles": "CS(=O)(=O)Nc1ccc(C(=O)O[C@@H](Cc2c(Cl)c[n+]([O-])cc2Cl)c2ccc(OC(F)F)c(OCC3CC3)c2)cc1OCC1CC1", "assay_target": "Phosphodiesterase 4 (Homo sapiens, UniProt P27815+Q08499+Q07343+Q08493)", "label_value": "Satisfied"}
{"cpd_smiles": "CS(=O)(=O)Nc1ccc(C(=O)O[C@@H](Cc2c(Cl)c[n+]([O-])cc2Cl)c2ccc(OC(F)F)c(OCC3CC3)c2)cc1CO", "assay_target": "Phosphodiesterase 4 (Homo sapiens, UniProt P27815+Q08499+Q07343+Q08493)", "label_value": "Satisfied"}

Continue with the next compound.
Hello, is IC50 of the following compound strictly smaller than 0.1 nM? CS(=O)(=O)Nc1cc(OCC2CC2)cc(C(=O)O[C@@H](Cc2c(Cl)c[n+]([O-])cc2Cl)c2ccc(OC(F)F)c(OCC3CC3)c2)c1 Satisfied

Reference for the values: ChEMBL document CHEMBL3112486
